Assay: Cytotoxicity against Parkinson's disease patient derived human ONS cells assessed as effect on nucleus morphology parameters at 10 uM after 24 hrs by DAPI staining based fluorescence assay
readout-label: Activity

smiles-data	readout-label	observed-measurement
CC[C@H]1C[N@@+]2(O)CCc3cc(O)c(OC)cc3[C@@H]2C[C@@H]1C[C@H]1NCCc2c1[nH]c1ccc(O)cc21.O=C(O)C(F)(F)F.O=C([O-])C(F)(F)F	Activity	Non-Toxic
COc1cc2c(c(OC)c1OC)-c1ccc(OC)c(=O)cc1[C@@H](NC=O)CC2	Activity	Non-Toxic
CC[C@H]1C[N@+]2(O)CCc3cc(O)c(OC)cc3[C@@H]2C[C@@H]1C[C@@H]1NCCc2c1[nH]c1ccc(O)cc21.O=C(O)C(F)(F)F.O=C([O-])C(F)(F)F	Activity	Non-Toxic

====

Assay: Cytotoxicity against Parkinson's disease patient derived human ONS cells assessed as effect on nucleus morphology parameters at 10 uM after 24 hrs by DAPI staining based fluorescence assay
readout-label: Activity

smiles-data	observed-measurement
CC[C@H]1CN2CCc3cc(O)c(OC)cc3[C@@H]2C[C@@H]1C[C@H]1NCCc2c1[nH]c1ccccc21.O=C(O)C(F)(F)F.O=C(O)C(F)(F)F	Non-Toxic
CC[C@H]1CN2CCc3cc(O)c(OC)cc3[C@@H]2C[C@@H]1C[C@H]1NCCc2c1[nH]c1ccc(O)cc21.O=C(O)C(F)(F)F.O=C(O)C(F)(F)F	Non-Toxic
COC1=C[C@@H]2C3=C([C@@H]2C1=O)[C@@H](NC(C)=O)CCc1cc(OC)c(OC)c(OC)c13	Non-Toxic
COC1=C[C@H]2C3=C([C@H]2C1=O)[C@@H](NC(C)=O)CCc1cc(OC)c(O[C@@H]2O[C@H](CO)[C@@H](O)[C@H](O)[C@H]2O)c(OC)c13	Non-Toxic
COc1cc2c(c(OC)c1O)-c1ccc(OC)c(=O)cc1[C@@H](NC=O)CC2	Non-Toxic
COC1=C[C@@H]2C3=C([C@@H]2C1=O)[C@@H](NC(C)=O)CCc1cc(OC)c(O)c(OC)c13	Non-Toxic

Ref: ChEMBL document CHEMBL4627394
